The origin of these recorded values is ChEMBL document CHEMBL1129935.

system: HT-29; experiment: In vitro cytotoxicity against HT-29 (human colon adenocarcinoma) cell line.; type: functional, cell-based
quantity.kind: pIC50
Please note pIC50 is a logarithmic value: minus log10 of concentration in mol/L. Answer with that number alone.

Example results:
compound	pIC50
CN(CCCN1C(=O)c2cccc3cc4ccccc4c(c23)C1=O)CCCN1C(=O)c2cccc3cc4ccccc4c(c23)C1=O	7.72
CN(C)CCN1C(=O)c2cccc3cc(N)cc(c23)C1=O [AMONAFIDE]	5.52
O=C1c2cccc3cc4ccccc4c(c23)C(=O)N1CCNCCN1C(=O)c2cccc3cc4ccccc4c(c23)C1=O	7.52

I would be grateful if you could share the reported pIC50 for "O=C1c2cccc3cc4ccccc4c(c23)C(=O)N1CCNCCCNCCN1C(=O)c2cccc3cc4ccccc4c(c23)C1=O" . 8.40
